system: Coxsackie B4 virus; experiment: Antiviral activity against other viruses; assay type: cell-based; details: Enterovirus B, HeLa, Vero or PRK cell cultures, read-out: 50% effective inhibitory dose (EID50)
Below: a set of entries, each annotated with reported EC50.

Query :: Reported EC50, compound Nc1ccn([C@H]2C=C[C@@H](CO)O2)c(=O)n1 [ddeCyd, 2',3'-didehydro-2'-3'-dideoxycytidine] : ____
Result :: > 100 µM

Query :: Reported EC50, compound Nc1ccn([C@H]2CC[C@@H](CO)O2)c(=O)n1 [ddCyd, 2',3'-dideoxycytidine, reference compound] : ____
Result :: > 100 µM

----------
tested on: polio virus type 1; assay: organism not typed; assay type: cell-based; details: read-out: 50% effective inhibitory dose (EID50)
parameter: EC50

> print(dat)
                                   compound  parameter  value.observed
1  Nc1ccn([C@H]2CC[C@@H](CO)O2)c(=O)n1 [ddCyd, 2',3'-dideoxycytidine, reference compound]       EC50        > 100 µM

Read the next record carefully.
Query :: Reported EC50, compound Nc1ccn([C@H]2C=C[C@@H](CO)O2)c(=O)n1 [ddeCyd, 2',3'-didehydro-2'-3'-dideoxycytidine] : ____
Result :: > 100 µM
